Measured SUVmax kidney, listed per entry.
Tested on: PC3 PD-L1 overexpressing and PD-L1-mock tumors
Experiment: PET imaging in NMRI-nude mice bearing PC3 PD-L1 and PC3 mock tumors
Format: in vivo
Settings: tracer only, 4-5 hour p.i., i.v., mice
Source text: Male athymic NMRI-nude mice (Rj:NMRI-Foxn1nu, Janvier Labs, Le Genest-Saint-Isle, France) aged between 8 to 16 weeks were employed for the study. […] The growth of tumors was systematically monitored three times per week through caliper measurements, and animals with tumor sizes above 7 mm were included in the subsequent experiments. […] Three-dimensional volumes of interest were defined using fixed thresholding at 35–40% of the maximal measured intensity. […]

COMPOUND	SUVmax kidney
Cc1c(COc2cc(OCc3cncc(S(C)(=O)=O)c3)c(CN[C@@H](CS(=O)(=O)O)C(=O)NCCS(=O)(=O)O)cc2Br)cccc1-c1cccc(OCc2cn(CCCN3CCN(C(=O)[C@H](CS(=O)(=O)O)NC(=O)CCCC(=O)NC45CNCCNCC(N)(CNCCNC4)CNCCNC5)CC3)nn2)c1C.[64Cu+2] [[^64Cu]Cu-16]	1.37
Cc1c(COc2cc(OCc3cncc(S(C)(=O)=O)c3)c(CN[C@@H](CS(=O)(=O)O)C(=O)NCCS(=O)(=O)O)cc2Br)cccc1-c1cccc(OCc2cn(CCCN3CCN(C(=O)[C@H](CS(=O)(=O)O)NC(=O)CCCC(=O)NC45CNCCNCC(NC(=O)CCCC(=O)N[C@@H](CS(=O)(=O)O)C(=O)N6CCN(CCCn7cc(COc8cccc(-c9cccc(COc%10cc(OCc%11cncc(S(C)(=O)=O)c%11)c(CN[C@@H](CS(=O)(=O)O)C(=O)NCCS(=O)(=O)O)cc%10Br)c9C)c8C)nn7)CC6)(CNCCNC4)CNCCNC5)CC3)nn2)c1C.[64Cu+2] [[^64Cu]Cu-17]	2.18
Cc1c(COc2cc(OCc3cncc(S(C)(=O)=O)c3)c(CN[C@@H](CS(=O)(=O)O)C(=O)NCCS(=O)(=O)O)cc2Br)cccc1-c1cccc(OCc2cn(CCCN3CCN(C(=O)[C@H](CS(=O)(=O)O)NC(=O)CC[C@H](C(=O)[O-])N4CCN(CC(=O)[O-])CCN(CC(=O)[O-])CC4)CC3)nn2)c1C.[64Cu+2] [[^64Cu]Cu-14]	0.72
Cc1c(COc2cc(OCc3cncc(S(C)(=O)=O)c3)c(CN[C@@H](CS(=O)(=O)O)C(=O)NCCS(=O)(=O)O)cc2Br)cccc1-c1cccc(OCc2cn(CCCN3CCN(C(=O)[C@H](CS(=O)(=O)O)NC(=O)CN4CCCN5CCN(CCCN(CC(=O)[O-])CC5)CC4)CC3)nn2)c1C.[64Cu+2] [[^64Cu]Cu-15]	0.68

* * *

system: PC3 PD-L1 overexpressing and PD-L1-mock tumors; assay: PET imaging in NMRI-nude mice bearing PC3 PD-L1 and PC3 mock tumors; assay type: in vivo; settings: tracer only, 24-25 hour p.i., i.v., mice
Measured SUVmax PC3 mock tumor, listed per entry.

COMPOUND	TARGET_OR_SYSTEM	SUVmax PC3 mock tumor
Cc1c(COc2cc(OCc3cncc(S(C)(=O)=O)c3)c(CN[C@@H](CS(=O)(=O)O)C(=O)NCCS(=O)(=O)O)cc2Br)cccc1-c1cccc(OCc2cn(CCCN3CCN(C(=O)[C@H](CS(=O)(=O)O)NC(=O)CN4CCCN5CCN(CCCN(CC(=O)[O-])CC5)CC4)CC3)nn2)c1C.[64Cu+2] [[^64Cu]Cu-15]	PC3 PD-L1 overexpressing and PD-L1-mock tumors	0.76
Cc1c(COc2cc(OCc3cncc(S(C)(=O)=O)c3)c(CN[C@@H](CS(=O)(=O)O)C(=O)NCCS(=O)(=O)O)cc2Br)cccc1-c1cccc(OCc2cn(CCCN3CCN(C(=O)[C@H](CS(=O)(=O)O)NC(=O)CC[C@H](C(=O)[O-])N4CCN(CC(=O)[O-])CCN(CC(=O)[O-])CC4)CC3)nn2)c1C.[64Cu+2] [[^64Cu]Cu-14]	PC3 PD-L1 overexpressing and PD-L1-mock tumors	1.49
Cc1c(COc2cc(OCc3cncc(S(C)(=O)=O)c3)c(CN[C@@H](CS(=O)(=O)O)C(=O)NCCS(=O)(=O)O)cc2Br)cccc1-c1cccc(OCc2cn(CCCN3CCN(C(=O)[C@H](CS(=O)(=O)O)NC(=O)CCCC(=O)NC45CNCCNCC(N)(CNCCNC4)CNCCNC5)CC3)nn2)c1C.[64Cu+2] [[^64Cu]Cu-16]	PC3 PD-L1 overexpressing and PD-L1-mock tumors	0.87
Cc1c(COc2cc(OCc3cncc(S(C)(=O)=O)c3)c(CN[C@@H](CS(=O)(=O)O)C(=O)NCCS(=O)(=O)O)cc2Br)cccc1-c1cccc(OCc2cn(CCCN3CCN(C(=O)[C@H](CS(=O)(=O)O)NC(=O)CCCC(=O)NC45CNCCNCC(NC(=O)CCCC(=O)N[C@@H](CS(=O)(=O)O)C(=O)N6CCN(CCCn7cc(COc8cccc(-c9cccc(COc%10cc(OCc%11cncc(S(C)(=O)=O)c%11)c(CN[C@@H](CS(=O)(=O)O)C(=O)NCCS(=O)(=O)O)cc%10Br)c9C)c8C)nn7)CC6)(CNCCNC4)CNCCNC5)CC3)nn2)c1C.[64Cu+2] [[^64Cu]Cu-17]	PC3 PD-L1 overexpressing and PD-L1-mock tumors	1.18
